test system: Human tumour cells (cell line panel); assay: Proliferation assay: cell line panel (crystal violet, 4 days); type: cell-based; settings: OVCAR-3, OVCAR3, ovarian cancer, 5000 cells/well, read-out: Result Category, IC50 (mean)
VALUE_KIND: IC50

Lab note: Brc1cnn2c(NCc3nc4ccccc4[nH]3)nc(N3CCOCC3)nc12 gave IC50 of 30 to 100 nM

====

target: CDK2/CycE (Homo sapiens, UniProt P24941); test: CDK2/CycE kinase assay (TR-FRET, 2 mM ATP); conditions: 2 mM ATP (high ATP); median; read-out: CDK2/CyclinE, 2 mM ATP (high ATP), IC50 (median)
VALUE_KIND: IC50 (µM)
The response must be a number in µM with no trailing unit.

// worked examples, IC50 included
{"columns": ["CHEMICAL_STRUCTURE", "UNIT_SYMBOL", "IC50"],
 "data": [
  ["CC(=O)NCCCc1cccc2[nH]c(CNc3nc(N4CCOCC4)nc4c(Br)cnn34)nc12.O=CO", "µM", 10.7],
  ["Clc1cnn2c(NCc3nc4ccccc4[nH]3)nc(N3CCOCC3)nc12", "µM", 6.52],
  ["FC(F)Cc1cnn2c(NCc3nc4ccccc4[nH]3)nc(N3CCOCC3)nc12.O=C(O)C(F)(F)F", "µM", 15.4]
]}

Kindly review the next compound as well.
For the compound CN1CCN(c2nc(NCc3nc4cc(C(F)(F)F)ccc4[nH]3)n3ncc(Br)c3n2)CC1 , the measured IC50 on CDK2/CycE (Homo sapiens, UniProt P24941) was 12.4

====

Catalogue of IC50 readings, one per entry.
biological target: CDK2/CycE (Homo sapiens, UniProt P24941); test: CDK2/CycE kinase assay (TR-FRET, 2 mM ATP); conditions: 2 mM ATP (high ATP); median; read-out: CDK2/CyclinE, 2 mM ATP (high ATP), IC50 (median)

// worked examples, IC50 included
{"columns": ["CHEMICAL_STRUCTURE", "READOUT_VALUE"],
 "data": [
  ["CN1CCN(c2nc(NCc3nc4cc(F)c(F)cc4[nH]3)n3ncc(C4CC4)c3n2)CC1", "> 20 µM"],
  ["COC(=O)C1CCN(c2nc(NCc3nnc(-c4ccccc4)[nH]3)n3ncc(Br)c3n2)CC1", "11.1 µM"],
  ["Cc1ccc2[nH]c(CNc3nc(N4C[C@@H](C)N[C@@H](C)C4)nc4c(C5CC5)cnn34)nc2c1", "> 20 µM"],
  ["Cc1ccnc2[nH]c(CNc3nc(N4CCN(C)CC4)nc4c(C(C)C)cnn34)nc12", "15.6 µM"]
]}

Lab note: CN1CCN(c2nc(NCc3nc4cc(F)c(Cl)cc4[nH]3)n3ncc(Br)c3n2)CC1 gave IC50 of 17.8 µM

Lab note: Fc1cccc2[nH]c(CNc3nc(N4CCOCC4)nc4c(Br)cnn34)nc12 gave IC50 of 3.24 µM

Lab note: CN1CCN(c2nc(NCc3nc4cc(F)ccc4[nH]3)n3ncc(C4CC4)c3n2)CC1 gave IC50 of > 20 µM

Lab note: Clc1cc2nc(CNc3nc(N4CCOCC4)nc4c(Br)cnn34)[nH]c2cc1Cl gave IC50 of 9.46 µM

Lab note: N[C@@H]1CN(c2nc(NCc3nc4ccccc4[nH]3)n3ncc(Br)c3n2)CC12CC2 gave IC50 of 2.58 µM

Lab note: Cc1cc(-c2cnn3c(NCc4nc5ccccc5[nH]4)nc(N4CCN(C)CC4)nc23)ccn1 gave IC50 of > 20 µM

Lab note: OC[C@@H]1CCCCN1c1nc(NCc2nc3c(F)c(F)ccc3[nH]2)n2ncc(C3CC3)c2n1 gave IC50 of 2.72 µM

Lab note: CN1CCN(c2nc(NCc3nc4cc(Cl)c(Cl)cc4[nH]3)n3ncc(-c4cnn(C)c4)c3n2)CC1 gave IC50 of > 20 µM

Lab note: Brc1cnn2c(NCc3nc4ccccc4[nH]3)nc(N3C[C@H]4C[C@@H]3CN4)nc12 gave IC50 of 4.84 µM

Lab note: CN(CCO)c1nc(NCc2nc3ccccc3[nH]2)n2ncc(Br)c2n1 gave IC50 of 4.94 µM

Lab note: CN(CC(C)(C)O)c1nc(NCc2nc3c(F)c(F)ccc3[nH]2)n2ncc(C(F)(F)F)c2n1 gave IC50 of 9.56 µM

Lab note: CN(CC(C)(C)O)c1nc(NCc2nc3cc(Cl)c(Cl)cc3[nH]2)n2ncc(C3CC3)c2n1 gave IC50 of > 20 µM

====

System: CAL-120, human breast adenocarcinoma cells
Assay: Proliferation assay CAL-120 (crystal violet, 4 days)
Format: cell-based
Details: Homo sapiens, CAL-120, 96 h, CAL-120 cells, median, read-out: Prolif-CAL-120, IC50-[mol/l] (median)
Method: Human tumour cells were originally obtained from the American Type Culture Collection (ATCC), or from the Deutsche Sammlung von Mikroorganismen und Zellkulturen (DSMZ, German Collection of Microorganisms and Cell Cultures). […] Cell proliferation was determined by staining the cells with crystal violet: the cells were fixed by adding 20 microL/measuring point of an 11% glutaric aldehyde solution for 15 minutes at room temperature. […] The extinction was determined by photometry at a wavelength of 595 nm. […]
VALUE_KIND: log10(IC50) (log10 of the value in nM)
Annotation: log10 of IC50, nM basis.

// worked examples, log10(IC50) included
{"columns": ["CHEMICAL_STRUCTURE", "READOUT_VALUE"],
 "data": [
  ["CN(CC(C)(C)O)c1nc(NCc2nc3c(F)cccc3[nH]2)n2ncc(C3CC3)c2n1", 0.86],
  ["COc1cccc(-c2nnc(CNc3nc(N4CCOCC4)nc4c(Br)cnn34)[nH]2)c1", 1.47]
]}

Lab note: CN1CCN(c2nc(NCc3nc4ccccc4[nH]3)n3ncc(C4CC4)c3n2)CC1 gave log10(IC50) of 1.08

Lab note: CC(C)COc1nc(NCc2nc3ccccc3[nH]2)n2ncc(Br)c2n1 gave log10(IC50) of 2.00

Lab note: Cc1cc2nc(CNc3nc(N4CC5CCC(C4)N5)nc4c(C5CC5)cnn34)[nH]c2cc1C gave log10(IC50) of 0.10

Lab note: CC(C)c1cnn2c(NCc3nc4ccccc4[nH]3)nc(N3CCN(C)CC3)nc12 gave log10(IC50) of 1.49

Lab note: CO[C@H]1CCN(c2nc(NCc3nc4ccccc4[nH]3)n3ncc(Br)c3n2)C1 gave log10(IC50) of 2.03

Lab note: FC(F)(F)c1ccc2[nH]c(CNc3nc(N4CCOCC4)nc4c(Br)cnn34)nc2c1 gave log10(IC50) of 0.68

====

Catalogue of DC50 readings, one per entry.
target: CDK12 (nuclear staining in CAL-120 cells) (Homo sapiens); construct: endogenous in cells; host or cells: CAL-120 human breast cancer cells (DSMZ ACC 459); test: CDK12 nuclear protein level: immunofluorescence/high content analysis (CAL-120); type: cell-based; conditions: CAL-120 cells, 24 h, immunofluorescence; 50% reduction of nuclear CDK12 staining intensity; median; read-out: CDK12 degradation IF, DC50- [mol/l] (median)
Sequence (Q9NYV4 whole entry): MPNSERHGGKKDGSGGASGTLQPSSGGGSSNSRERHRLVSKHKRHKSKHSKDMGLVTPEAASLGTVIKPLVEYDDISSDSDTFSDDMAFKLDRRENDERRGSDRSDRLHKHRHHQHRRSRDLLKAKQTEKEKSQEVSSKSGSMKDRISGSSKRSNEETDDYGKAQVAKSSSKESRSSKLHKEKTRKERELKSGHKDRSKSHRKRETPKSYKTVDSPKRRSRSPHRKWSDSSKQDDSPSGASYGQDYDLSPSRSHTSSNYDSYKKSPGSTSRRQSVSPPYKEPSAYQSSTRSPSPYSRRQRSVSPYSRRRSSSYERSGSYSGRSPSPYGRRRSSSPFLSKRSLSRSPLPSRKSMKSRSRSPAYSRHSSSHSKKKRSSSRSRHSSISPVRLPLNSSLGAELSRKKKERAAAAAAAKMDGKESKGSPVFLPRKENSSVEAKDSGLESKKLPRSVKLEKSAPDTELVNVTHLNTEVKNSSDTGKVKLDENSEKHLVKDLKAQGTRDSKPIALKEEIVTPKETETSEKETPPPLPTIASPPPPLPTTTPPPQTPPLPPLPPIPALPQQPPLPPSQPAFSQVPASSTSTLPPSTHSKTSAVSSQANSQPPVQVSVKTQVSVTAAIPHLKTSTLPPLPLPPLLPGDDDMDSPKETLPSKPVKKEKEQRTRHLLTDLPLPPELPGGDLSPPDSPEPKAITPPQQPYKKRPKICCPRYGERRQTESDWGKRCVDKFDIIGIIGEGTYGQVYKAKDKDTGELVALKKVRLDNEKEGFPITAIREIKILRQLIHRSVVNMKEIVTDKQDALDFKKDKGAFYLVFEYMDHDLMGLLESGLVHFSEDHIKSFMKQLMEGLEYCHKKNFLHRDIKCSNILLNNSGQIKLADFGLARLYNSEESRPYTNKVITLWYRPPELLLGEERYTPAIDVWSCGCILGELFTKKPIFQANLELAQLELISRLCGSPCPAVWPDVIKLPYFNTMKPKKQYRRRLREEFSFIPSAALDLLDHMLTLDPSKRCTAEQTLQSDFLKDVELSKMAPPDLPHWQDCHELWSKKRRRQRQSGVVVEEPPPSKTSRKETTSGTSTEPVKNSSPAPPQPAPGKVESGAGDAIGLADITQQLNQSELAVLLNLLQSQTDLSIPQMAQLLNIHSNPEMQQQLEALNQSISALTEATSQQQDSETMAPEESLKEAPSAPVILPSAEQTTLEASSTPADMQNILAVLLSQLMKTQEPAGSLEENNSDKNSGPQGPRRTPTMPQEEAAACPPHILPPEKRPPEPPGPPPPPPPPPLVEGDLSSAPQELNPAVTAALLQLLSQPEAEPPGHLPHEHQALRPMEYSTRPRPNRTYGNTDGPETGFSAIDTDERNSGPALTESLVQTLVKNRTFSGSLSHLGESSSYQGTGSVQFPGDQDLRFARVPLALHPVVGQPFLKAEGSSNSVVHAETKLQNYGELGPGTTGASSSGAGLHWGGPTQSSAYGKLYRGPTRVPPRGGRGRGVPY
Sequence (O75909 whole entry partner): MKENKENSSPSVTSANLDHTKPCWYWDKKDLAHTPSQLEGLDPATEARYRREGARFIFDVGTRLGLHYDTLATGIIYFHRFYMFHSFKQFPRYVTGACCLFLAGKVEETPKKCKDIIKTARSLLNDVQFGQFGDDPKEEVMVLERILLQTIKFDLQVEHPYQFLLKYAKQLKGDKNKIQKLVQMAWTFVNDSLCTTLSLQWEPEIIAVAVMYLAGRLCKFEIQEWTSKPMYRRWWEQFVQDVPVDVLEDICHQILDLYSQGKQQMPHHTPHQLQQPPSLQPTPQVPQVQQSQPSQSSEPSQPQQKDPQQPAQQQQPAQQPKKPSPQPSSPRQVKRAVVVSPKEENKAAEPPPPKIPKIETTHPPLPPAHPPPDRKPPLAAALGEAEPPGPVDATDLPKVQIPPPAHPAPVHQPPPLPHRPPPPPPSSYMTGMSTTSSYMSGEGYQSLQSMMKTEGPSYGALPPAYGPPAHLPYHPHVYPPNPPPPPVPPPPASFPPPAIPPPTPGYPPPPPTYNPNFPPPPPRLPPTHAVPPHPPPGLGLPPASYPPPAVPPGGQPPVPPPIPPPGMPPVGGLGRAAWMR
The response must be a number in nM with no trailing unit.

// worked examples, DC50 included
{"columns": ["COMPOUND", "UNIT_SYMBOL", "DC50"],
 "data": [
  ["Brc1cnn2c(NCc3nc4ccccc4[nH]3)nc(N3C[C@H]4CC[C@@H]3CO4)nc12 (single isomer, unassigned) [Example 383]", "nM", 5.79],
  ["c1ccc2[nH]c(CNc3nc(N4CCOCC4)nc4c(C5CC5)cnn34)nc2c1 [Example 92]", "nM", 2.36],
  ["Cc1cnn2c(NCc3nc4ccccc4[nH]3)nc(N3CC4CCC(C3)N4)nc12 [Example 401]", "nM", 30.8]
]}

Kindly review the next compound as well.
Lab note: CN1CC2CN(c3nc(NCc4nc5ccccc5[nH]4)n4ncc(Br)c4n3)CC2C1 (stereo not shown) [Example 240] gave DC50 of 5.56

====

Catalogue of pIC50 readings, one per entry.
target: CDK2/CycE (Homo sapiens, UniProt P24941); assay: CDK2/CycE kinase assay (TR-FRET, 2 mM ATP); settings: 2 mM ATP (high ATP); median; read-out: CDK2/CyclinE, 2 mM ATP (high ATP), IC50 (median)
pIC50: −log10 of the molar value.

// worked examples, pIC50 included
{"columns": ["CHEMICAL_STRUCTURE", "VALUE_KIND", "READOUT_VALUE"],
 "data": [
  ["C[C@@H]1CN(c2nc(NCc3nc4cc(F)ccc4[nH]3)n3ncc(C4CC4)c3n2)C[C@H](C)N1", "pIC50", "< 4.70"],
  ["Fc1ccc2[nH]c(CNc3nc(N4CCOCC4)nc4c(C5CCCC5)cnn34)nc2c1F", "pIC50", "< 4.70"],
  ["COc1cccc2[nH]c(CNc3nc(N4CCOCC4)nc4c(C5CC5)cnn34)nc12", "pIC50", 5.26]
]}

Kindly review the next compound as well.
Lab note: COc1cccc2[nH]c(CNc3nc(N4CCOCC4)nc4c(CC(F)(F)F)cnn34)nc12 gave pIC50 of < 4.70
